These entries and their values trace back to ChEMBL document CHEMBL1649387.

Test system: MDA-MB-435
ASSAY: Cytotoxicity against human MDA-MB-435 cells after 72 hrs by MTT assay
Assay type: functional, cell-based
EXPERIMENTAL CONDITIONS: MDA-MB-435, 72 h
MEASUREMENT KIND: IC50

In the examples that follow, each entry is paired with its recorded IC50.
{"MOLECULE": "COc1ccc(-c2cn([C@H]3C4=C(OC(C)(C)[C@@H]3Br)c3ccccc3C(=O)C4=O)nn2)cc1", "TEST VALUE": "1.92 µM"}
{"MOLECULE": "O=C1c2ccccc2C(=O)c2c1ccc1nc(-c3cccc(F)c3)[nH]c21", "TEST VALUE": "> 14.6 µM"}
{"MOLECULE": "CC(C)=CCC1=C(OC2(CC=C(C)C)C(=O)C(=O)c3ccccc3C2=O)C(=O)c2ccccc2C1=O (stereo not given)", "TEST VALUE": "> 10.4 µM"}
{"MOLECULE": "O=C1c2ccccc2C(=O)c2c1ccc1nc(-c3ccccc3F)[nH]c21", "TEST VALUE": "> 14.6 µM"}
{"MOLECULE": "O=C1c2ccccc2C(=O)c2c1ccc1nc(-c3cccc(O)c3)[nH]c21", "TEST VALUE": "> 14.7 µM"}

Below is a list of molecules. For each, state its recorded IC50.
1. CC(C)CC1=C(O)C(=O)C2=C(CCCC2)C1=O
2. CC(C)CCC1=C(OC2(CCC(C)C)C(=O)C(=O)C3=C(CCCC3)C2=O)C(=O)C2=C(CCCC2)C1=O (stereo not given)

*A*
1. > 21.4 µM
2. > 10.1 µM

Below is a list of molecules. For each, state its recorded IC50.
1. CC1(C)OC2=C(C(=O)C(=O)c3ccccc32)[C@H](n2cc(-c3ccc(F)cc3)nn2)[C@H]1Br
2. Cc1cccc(-c2nc3ccc4c(c3[nH]2)C(=O)c2ccccc2C4=O)c1
3. CC(C)CC1=C(OC2(CC(C)C)C(=O)C(=O)c3ccccc3C2=O)C(=O)c2ccccc2C1=O (stereo not given)
4. CC(C)CC1=C(OC2(CC(C)C)C(=O)C(=O)C3=C(CCCC3)C2=O)C(=O)C2=C(CCCC2)C1=O (stereo not given)

*A*
["1.2 µM", "> 14.8 µM", "> 10.9 µM", "> 10.7 µM"]

---

System: MDA-MB-435
ASSAY: Induction of apoptosis in human MDA-MB-435 cells assessed as apoptotic nuclei at 5 uM after 24 hrs by acridine orange/ethidium bromide staining based fluorescence microscopy
Format: functional
Values of Activity strictly less than 9% map to True, and values of at least 9% map to False.

// known answers, use as guide
{"COMPOUND": "CC(C)CCC1=C(OC2(CCC(C)C)C(=O)C(=O)C3=C(CCCC3)C2=O)C(=O)C2=C(CCCC2)C1=O (configuration not stated)", "CLASS LABEL": "True"}
{"COMPOUND": "C=CCC1=C(OC2(CC=C)C(=O)C(=O)c3ccccc3C2=O)C(=O)c2ccccc2C1=O (configuration not stated)", "CLASS LABEL": "True"}
{"COMPOUND": "O=C1c2ccccc2C(=O)c2c1ccc1nc(-c3ccc(O)cc3)[nH]c21", "CLASS LABEL": "False"}
{"COMPOUND": "CC(C)CCC1=C(OC2(CCC(C)C)C(=O)C(=O)c3ccccc3C2=O)C(=O)c2ccccc2C1=O (configuration not stated)", "CLASS LABEL": "False"}
{"COMPOUND": "O=C1c2ccccc2C(=O)c2c1ccc1nc(-c3ccccc3O)[nH]c21", "CLASS LABEL": "True"}

*Q* Consider CCCC1=C(OC2(CCC)C(=O)C(=O)C3=C(CCCC3)C2=O)C(=O)C2=C(CCCC2)C1=O (configuration not stated) . Does its Activity lie strictly below 9%?
*A* True

*Q* Consider `O=C1c2ccccc2C(=O)c2c1ccc1nc(-c3cccc(O)c3)[nH]c21` . Does its Activity lie strictly below 9%?
*A* False

*Q* Consider `Cc1cccc(-c2nc3ccc4c(c3[nH]2)C(=O)c2ccccc2C4=O)c1` . Does its Activity lie strictly below 9%?
*A* False
